FYI, the data here is from paper PMC12040169.

Assay: in vitro
Settings: human, hela cells, % viability
endpointName: viability at 28.5 h, 10 µM (%)
Use % as the unit, but write only the number.

[
  {
    "compound": "CC(C)(C)NS(=O)(=O)c1ccc(OCC(=O)O)cc1 [CBK287077]",
    "unitSpec": "%",
    "viability at 28.5 h, 10 µM": 100
  },
  {
    "compound": "CC1CCCN(Cc2c([C@H]3CCCO3)[nH]c3ncccc23)C1 (stereo partly shown) [CBK282287]",
    "unitSpec": "%",
    "viability at 28.5 h, 10 µM": 110
  },
  {
    "compound": "COc1cccc2cc(C(=O)NCCCSC)oc12 [CBK149793]",
    "unitSpec": "%",
    "viability at 28.5 h, 10 µM": 99.6
  },
  {
    "compound": "Cc1ncncc1C(=O)NCC1(c2ccccc2F)CCCC1 [CBK281411]",
    "unitSpec": "%",
    "viability at 28.5 h, 10 µM": 105
  },
  {
    "compound": "O=C(O)c1ccc(CNCc2ccc(-c3ccc(Cl)cc3)o2)cc1 [CBK269619C]",
    "unitSpec": "%",
    "viability at 28.5 h, 10 µM": 94.7
  }
]

// viability at 28.5 h, 10 µM lookup, key: CC(C(=O)O)c1cc(C(=O)c2ccccc2)sc1-c1ccccc1 (stereo not shown) [CBK260968]
91.3

// viability at 28.5 h, 10 µM lookup, key: OC1CCCCC1C1(NC(=S)Nc2ccccc2)CCCCC1 (stereo not shown) [CBK026324]
97.9
